Tested on: HCC1806
Experiment: Antiproliferative activity against human HCC1806 cells assessed as inhibition of cell growth incubated for 36 hrs by SRB assay
Assay type: functional, cell-based
Activity calls are given as the source filed them. No cut-off for these calls is given here.

compound	Activity
CC(=O)O[C@@H]1[C@@H](OC(C)=O)[C@H](O[C@H]2CC[C@]34C[C@]35CC(=O)[C@]3(C)[C@H]6[C@H](C)C[C@]7(OC(=O)[C@@]8(C)O[C@@H]78)O[C@H]6C[C@@]3(C)[C@@H]5CC[C@H]4C2(C)C)OC[C@H]1OC(C)=O	inactive
CC(=O)O[C@@H]1[C@@H](OC(C)=O)[C@H](O[C@H]2CC[C@]34C[C@]35CC(=O)[C@]3(C)[C@H]6[C@H](C)C[C@]7(OC(OC(=O)c8ccccc8F)[C@@]8(C)O[C@@H]78)O[C@H]6C[C@@]3(C)[C@@H]5CC[C@H]4C2(C)C)OC[C@H]1OC(C)=O (some centres undefined)	inactive
CC(=O)O[C@@H]1[C@@H](OC(C)=O)[C@H](O[C@H]2CC[C@]34C[C@]35CC(=O)[C@]3(C)[C@H]6[C@H](C)C[C@]7(OC(OC(=O)c8ccccc8)[C@@]8(C)O[C@@H]78)O[C@H]6C[C@@]3(C)[C@@H]5CC[C@H]4C2(C)C)OC[C@H]1OC(C)=O (some centres undefined)	inactive
CC(=O)OC1O[C@]2(C[C@@H](C)[C@H]3[C@H](C[C@@]4(C)[C@@H]5CC[C@H]6C(C)(C)[C@@H](O[C@@H]7OC[C@@H](OC(C)=O)[C@H](OC(C)=O)[C@H]7OC(C)=O)CC[C@@]67C[C@@]57CC(=O)[C@]34C)O2)[C@@H]2O[C@]12C (some centres undefined)	inactive
